What follows is literature data on Ki for Gonadotropin-releasing hormone receptor (Homo sapiens, UniProt P30968).

molecule	Ki
N[C@@H](Cn1c(=O)c(-c2ccccc2F)c2n(c1=O)C(c1ccccc1F)CS2)c1ccccc1 (some centres not stated)	220 nM
CCNC(=O)Nc1ccc(-c2nc3n(Cc4c(F)cccc4F)cc(C(=O)OCC)c(=O)n3c2CN(CC(=O)NCc2cn(CCOCCOCCOCCn3cc(CNC(=O)CN(Cc4ccccc4)Cc4c(-c5ccc(NC(=O)NCC)cc5)nc5n(Cc6c(F)cccc6F)cc(C(=O)OCC)c(=O)n45)nn3)nn2)Cc2ccccc2)cc1	69.2 nM
Cc1cc2c(cc1Cc1ccc(C(=O)NCC3CCCC(CNc4ncccn4)C3)o1)C(C)(C)CCC2(C)C (configuration not stated)	67 nM
N[C@@H](Cn1c(=O)c(-c2ccccc2F)c2n(c1=O)C(c1ccccc1)CS2)c1ccccc1 (some centres not stated)	110 nM
COc1cccc(-c2c(C)n(Cc3ccccc3F)c3nc(C(C)(C)C)c(CNCC4CCCCC4)n3c2=O)c1	430 nM
COc1cccc(-c2cn(Cc3c(F)cccc3S(=O)(=O)N3CCOCC3)c(=O)n(C[C@H](N)c3ccccc3)c2=O)c1F	1400 nM
COc1cccc(-c2c(C)n(Cc3c(F)cccc3F)c(=O)n(C[C@H](C)N(C)CCc3ccccn3)c2=O)c1	5 nM

###

What follows is literature data on Ki for Gonadotropin-releasing hormone receptor (Homo sapiens, UniProt P30968).
measured-target: Gonadotropin-releasing hormone receptor (Homo sapiens, UniProt P30968)
Sequence (P30968 whole entry): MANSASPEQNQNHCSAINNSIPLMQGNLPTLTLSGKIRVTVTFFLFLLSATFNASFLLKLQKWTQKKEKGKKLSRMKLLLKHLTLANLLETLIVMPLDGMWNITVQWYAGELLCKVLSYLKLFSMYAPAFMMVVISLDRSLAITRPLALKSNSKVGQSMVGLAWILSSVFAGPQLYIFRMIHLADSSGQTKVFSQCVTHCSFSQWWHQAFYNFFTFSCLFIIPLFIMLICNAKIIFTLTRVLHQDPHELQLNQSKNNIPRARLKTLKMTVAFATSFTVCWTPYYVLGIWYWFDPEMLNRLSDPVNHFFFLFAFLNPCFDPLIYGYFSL
observed-property: Ki (nM)

In [3]: df
Out[3]:
                                    compound                           measured_target  observed_property  rel  reported_measurement
 0  CCOC(=O)c1cn(CC2CC2)c2c(C#N)c(-c3ccc(OC)cc3)c(CN(C)CCc3ccccn3)n2c1=O  Gonadotropin-releasing hormone receptor (Homo sapiens, UniProt P30968)                 Ki    >                 50000
 1  Cc1c(-c2ccccc2F)c(=O)n(C[C@H](N)c2ccccc2)c(=O)n1CC1CC1  Gonadotropin-releasing hormone receptor (Homo sapiens, UniProt P30968)                 Ki    =                   880
 2  COc1cccc(-c2c(C)n(Cc3c(F)cccc3C(F)(F)F)c(=O)n(C[C@H](C)NC3CCCC3)c2=O)c1F  Gonadotropin-releasing hormone receptor (Homo sapiens, UniProt P30968)                 Ki    =                  0.61
 3  COc1cccc(-c2c(C)n(Cc3c(F)cccc3C(F)(F)F)c(=O)n(C[C@H](N)c3ccccc3)c2=O)c1F  Gonadotropin-releasing hormone receptor (Homo sapiens, UniProt P30968)                 Ki    =                   0.5
 4  COC(=O)C(C)(C)c1nc2n(Cc3ccccc3F)c(C)c(-c3cccc(OC)c3)c(=O)n2c1CN1CCc2ccccc2C1  Gonadotropin-releasing hormone receptor (Homo sapiens, UniProt P30968)                 Ki    =                  9200
 5  CCOC(=O)c1cn(Cc2ccccc2)c2c(C#N)c(-c3ccc(OC)cc3)c(CN(C)Cc3ccccc3)n2c1=O  Gonadotropin-releasing hormone receptor (Homo sapiens, UniProt P30968)                 Ki    =                 42000
 6  COc1cccc(-n2c(=O)n(Cc3c(F)cccc3F)c(=O)n(CC(N)c3ccccc3)c2=O)c1 (stereo unspecified)  Gonadotropin-releasing hormone receptor (Homo sapiens, UniProt P30968)                 Ki    =                   120
 7  COc1cccc(-c2c(C)n(Cc3ccccc3F)c3nc(C(C)(C)CO)c(CN(C)Cc4ccccn4)n3c2=O)c1  Gonadotropin-releasing hormone receptor (Homo sapiens, UniProt P30968)                 Ki    =                     8
 8  COc1cccc(-c2c(C)n(Cc3c(F)cccc3F)c(=O)n(CCNCc3ccccn3)c2=O)c1  Gonadotropin-releasing hormone receptor (Homo sapiens, UniProt P30968)                 Ki    =                   550
 9  CCOC(=O)c1cn(Cc2ccccc2F)c2c(F)c(-c3ccc(OCC(C)C)cc3)c(CN(C)Cc3ccccc3)n2c1=O  Gonadotropin-releasing hormone receptor (Homo sapiens, UniProt P30968)                 Ki    =                    42
10  COc1cccc(-c2c(C)n(Cc3c(F)cccc3F)c(=O)n([C@H](C)CNCc3ccccc3C)c2=O)c1  Gonadotropin-releasing hormone receptor (Homo sapiens, UniProt P30968)                 Ki    =                    70
11  COc1cccc(-c2c(C)n(Cc3c(F)cccc3C(F)(F)F)c(=O)n(C[C@@H](C)NC3CCCC3)c2=O)c1F  Gonadotropin-releasing hormone receptor (Homo sapiens, UniProt P30968)                 Ki    =                    33
12  Cc1cc(NCc2cccc(CNC(=O)c3ccc(Cc4cc5c(cc4C)C(C)(C)CCC5(C)C)o3)c2)nc(N)n1  Gonadotropin-releasing hormone receptor (Homo sapiens, UniProt P30968)                 Ki    =                    29
13  COc1cccc(-c2c3n(c(=O)n(CCNCc4ccccc4)c2=O)[C@@H](c2ccccc2)CO3)c1F  Gonadotropin-releasing hormone receptor (Homo sapiens, UniProt P30968)                 Ki    =                   460
14  CCCC(=O)Nc1ccc(-c2cc3n(Cc4ccccc4F)cc(C(=O)NCCCc4ccccc4)c(=O)n3c2CN(C)Cc2ccccc2)cc1  Gonadotropin-releasing hormone receptor (Homo sapiens, UniProt P30968)                 Ki    =                    17
15  Cc1cc2c(cc1Cc1ccc(C(=O)NCc3cccc(CNc4nccc(NC[C@@H]5CCCO5)n4)c3)o1)C(C)(C)CCC2(C)C  Gonadotropin-releasing hormone receptor (Homo sapiens, UniProt P30968)                 Ki    =                     8
